Please respond with reported log2 (Sample B/Sample A) for every item in the list.
Target: T1, native human ESRRG protein (Estrogen-receptor related receptor gamma) (human, UniProt P62508 229-458, limits assumed)
T1 construct: the screened protein is called 'native human ESRRG protein'; also called ESSRG; ERRγ
T1 sequence (looked up): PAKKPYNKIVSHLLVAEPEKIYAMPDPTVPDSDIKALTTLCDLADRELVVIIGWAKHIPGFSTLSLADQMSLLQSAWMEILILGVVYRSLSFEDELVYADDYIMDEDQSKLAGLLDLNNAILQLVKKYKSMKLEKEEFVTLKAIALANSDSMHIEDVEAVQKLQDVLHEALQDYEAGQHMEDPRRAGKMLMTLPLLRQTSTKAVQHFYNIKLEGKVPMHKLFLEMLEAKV
Experiment: peptide microarray, Iteration 1; bound ESRRG detected with fluorescent anti-ESRRG mAb
Where no end group is shown, it is not given here.

binder=Ac-IKQNYNNS reported_endpoint="log2 (Sample B/Sample A)" observed_measurement=4.97
binder=Ac-NSLKKHLL reported_endpoint="log2 (Sample B/Sample A)" observed_measurement=10.8
binder=Ac-LHLKGSQT reported_endpoint="log2 (Sample B/Sample A)" observed_measurement=6.48
binder=Ac-LLHKSKSQ reported_endpoint="log2 (Sample B/Sample A)" observed_measurement=4.99
binder=Ac-NNSWSLHL reported_endpoint="log2 (Sample B/Sample A)" observed_measurement=4.95

Give log2 (Sample B/Sample A) for each of the items listed below.
1. Ac-ANNSQLLH
2. Ac-IKQDHNNS
3. Ac-AANMFLLL

1. 9.9
2. 9.45
3. 5.37
